Literature survey of IC50 (system: JNK2 (Homo sapiens (Human))).

Qu. Fetch value of IC50 on JNK2 (Homo sapiens (Human)) for "CN(C)CCCn1cnc(-c2c(Cl)csc2NC(=O)Cn2c(=O)ccc3cc(C(F)(F)F)ccc32)n1" .
Ans. < 100 nM

Qu. Recall the reported IC50 of "O=C(Nc1cccc(C(=O)c2c[nH]c3ncc(-c4cccnc4)cc23)c1)Nc1ccc(Cl)c(C(F)(F)F)c1" when tested on JNK2 (Homo sapiens (Human)).
Ans. ≤ 10000 nM

Qu. Recall the reported IC50 of "COc1cccc(Cc2c[nH]c3ncc(-c4ccc(N)cc4)cc23)c1" on JNK2 (Homo sapiens (Human)) and write it down.
Ans. ≤ 10000 nM

Qu. Quote IC50 with test system JNK2 (Homo sapiens (Human)) for "CC(C)(C)N1CCN(C(=O)[C@H]2CC[C@H](Nc3nccc(-n4ccc5c(N6CCC(S(C)(=O)=O)CC6)cccc54)n3)CC2)CC1"
Ans. 54.5 nM

Qu. Find the measured IC50 of "Cc1nc(-c2sccc2NC(=O)CN2C(=O)CCc3ccccc32)c[nH]1" with JNK2 (Homo sapiens (Human)) as test system.
Ans. > 50000 nM

Qu. Look up and report measured IC50 (JNK2 (Homo sapiens (Human))) for the following compound: "Cc1csc(NC(=O)Cc2cccc3cnccc23)c1-c1nc2ccccc2s1"
Ans. > 10000 nM

Qu. Provide JNK2 (Homo sapiens (Human)) IC50 reading for "CCCc1cccc(NC2CCN(S(=O)(=O)c3ccc(CNC(=O)c4ccc(Cl)cc4)s3)CC2)c1" .
Ans. 310 nM

Qu. Please respond with reported IC50 (system JNK2 (Homo sapiens (Human))) for "Cc1ccncc1-c1cccc2c1nnn2-c1ccnc(N[C@H]2CC[C@H](C(=O)N3CCC(O)CC3)CC2)n1" .
Ans. 90.4 nM

---

IC50 for JNK2 (Homo sapiens (Human), UniProt P45984), merged from several publications.

Qu. For the compound "O=C(Cc1cccc2ncccc12)Nc1ccsc1-c1nnc[nH]1" , report IC50.
Ans. 100 to 10000 nM

Qu. Note IC50 for the compound shown: "Cc1n[nH]c(-c2c(C)csc2NC(=O)Cc2cccc3nccnc23)n1"
Ans. 100 to 10000 nM

Qu. # return recorded IC50 for input CS(=O)(=O)C1CCN(c2cccc3c2ccn3-c2ccnc(N[C@H]3CC[C@H](C(=O)N4CCN5CCCC5C4)CC3)n2)CC1 (stereo partly drawn)
Ans. 21.8 nM

Qu. Report IC50 for "COc1cccc(C(=O)c2c[nH]c3ncc(-c4cccs4)cc23)c1"
Ans. ≤ 10000 nM

Qu. Respond only with IC50 recorded for "O=C(Cn1c(=O)ccc2cc(C(F)(F)F)ccc21)Nc1scc(Br)c1-c1nnc[nH]1"
Ans. < 100 nM

Qu. Tell me measured IC50 for "O=C(Cn1c(=O)ccc2cc(C(F)(F)F)ccc21)Nc1scc(Br)c1-n1nccn1" please.
Ans. 100 to 10000 nM

Qu. Specify reported IC50 for the compound shown: "O=C(Cc1ccc(F)c2cnccc12)Nc1scc(Br)c1-c1ncn[nH]1"
Ans. < 100 nM

Qu. For the compound "O=C(Cc1cccc2cnccc12)Nc1scc(Br)c1-c1ncn[nH]1" , report IC50.
Ans. < 100 nM

Qu. Return IC50 for the following compound: "COC(=O)c1c(Cc2ccc(S(=O)(=O)N3CCOCC3)cc2)c(=O)c2ccc(Cl)cc2n1-c1ccccc1"
Ans. 161 nM

Qu. Give the reported IC50 for this compound. "CC(=O)N1CCN(c2cccc3c2c(C(N)=O)cn3-c2ccnc(N[C@H]3CC[C@H](CS(C)(=O)=O)CC3)n2)CC1"
Ans. 13.9 nM

Qu. Using known records, supply IC50 for "Cc1csc(NC(=O)Cc2ccc(OCCCN3CCCCC3)cc2)c1-c1ncn[nH]1"
Ans. 100 to 10000 nM

Qu. // fetch IC50 given entry COc1ccc(CC(=O)Nc2ccsc2-c2nc(C3CCCO3)n[nH]2)cc1 (stereo not drawn)
Ans. 100 to 10000 nM

Qu. Return IC50 (reported value) for this compound: "Cn1cnc(-c2c(Cl)csc2NC(=O)Cn2c(=O)ccn3nc(C(F)(F)F)cc23)n1"
Ans. < 100 nM

Qu. Identify measured IC50 associated with "Cc1cscc1-c1cccc2c1nnn2-c1ccnc(NC2CCN(S(C)(=O)=O)CC2)n1"
Ans. 17.8 nM

Qu. Report IC50, nothing else, for this compound: "O=C(Cc1cccc2ccccc12)Nc1ccsc1-c1ncn[nH]1"
Ans. 100 to 10000 nM

Qu. Given the compound "O=C(Cn1c(=O)ccn2nccc12)Nc1scc(Cl)c1-c1ncn[nH]1" , write its reported IC50.
Ans. < 100 nM

Qu. Look up and report measured IC50 for this entry: "COP(=O)(OC)OC1CCN(C(=O)[C@H]2CC[C@H](Nc3nccc(-n4ccc5c(OCCCS(C)(=O)=O)cccc54)n3)CC2)CC1"
Ans. 162 nM

Qu. Hello, please tell me recorded IC50 for this one: "O=C(Cn1c(=O)ccc2cnc(C(F)(F)F)cc21)Nc1scc(Cl)c1-c1nc[nH]n1"
Ans. < 100 nM
